# Tested on: velvetleaf
# protocol_text: Test B pre/postemergence velvetleaf
# Assay type: in vivo, Abutilon theophrasti
# run_conditions: Preemergence, Rate 250 g/ha; scale 0 to 10, 0 is no effect, 10 is complete control
measured_parameter: Velvetleaf plant response rating

The molecule listed as CSCCn1c(=O)on(C(=O)N(c2ccccc2)C(C)C)c1=O [Compound 419] has a reported Velvetleaf plant response rating of 1

The molecule listed as CC(C)N(C(=O)n1oc(=O)n([C@H](C)c2ccccc2)c1=O)c1ccc(Cl)cc1 [Compound 178] has a reported Velvetleaf plant response rating of 0

The molecule listed as CC(C)N(C(=O)n1oc(=O)n(Cc2cnc(Cl)s2)c1=O)c1ccc(F)cc1 [Compound 482] has a reported Velvetleaf plant response rating of 0

The molecule listed as C=CC[Si](C)(C)Cn1c(=O)on(C(=O)N(c2ccc(Cl)cc2)C(C)C)c1=O [Compound 414] has a reported Velvetleaf plant response rating of 0

The molecule listed as CC(C)N(C(=O)n1oc(=O)n(C(C)CCl)c1=O)c1ccc(Cl)cc1 (centres unmarked) [Compound 456] has a reported Velvetleaf plant response rating of 1

More entries:
The molecule listed as CC(C)N(C(=O)n1oc(=O)n(CC2=NOCCC2)c1=O)c1ccccc1 [Compound 430] has a reported Velvetleaf plant response rating of 4

The molecule listed as Cc1ccccc1-n1c(=O)on(C(=O)N(c2ccc(S(C)(=O)=O)cc2)C(C)C)c1=O [Compound 203] has a reported Velvetleaf plant response rating of 0

The molecule listed as Cc1ccccc1-n1c(=O)on(C(=O)N(c2ccc(-c3ccccc3)cc2)C(C)C)c1=O [Compound 187] has a reported Velvetleaf plant response rating of 0

* * *

# System: giant foxtail
# protocol_text: Test B pre/postemergence giant foxtail
# Assay type: in vivo, Setaria faberii
# run_conditions: Rate 62 g/ha, Postemergence; scale 0 to 10, 0 no effect, 10 complete control
measured_parameter: Giant foxtail plant response rating
Reply with just the number.

Example cases with answers are listed next.
The compound listed as `CC(C)N(C(=O)n1oc(=O)n(CC[N+](=O)[O-])c1=O)c1ccc(Cl)cc1` has a reported Giant foxtail plant response rating of 0

The compound listed as `CC(C)N(C(=O)n1oc(=O)n(CC#N)c1=O)c1ccc(Cl)cc1` has a reported Giant foxtail plant response rating of 0

The compound listed as `CC(C)N(C(=O)n1oc(=O)n(-c2ccc3ccccc3c2)c1=O)c1ccccc1` has a reported Giant foxtail plant response rating of 0

The compound listed as `C=C(Cn1c(=O)on(C(=O)N(c2ccccc2)C(C)C)c1=O)c1cccnc1` has a reported Giant foxtail plant response rating of 0

More entries:
The compound listed as CC(C)N(C(=O)n1oc(=O)n(C(C)CCl)c1=O)c1ccc(Cl)cc1 (stereo not shown) has a reported Giant foxtail plant response rating of 2

The compound listed as CC(C)N(C(=O)n1oc(=O)n(C(C)C#N)c1=O)c1ccc(Cl)cc1 (stereo not shown) has a reported Giant foxtail plant response rating of 0

The compound listed as `CC(C)N(C(=O)n1oc(=O)n(CCl)c1=O)c1ccc(F)cc1F` has a reported Giant foxtail plant response rating of 0

The compound listed as `CC(C)N(C(=O)n1oc(=O)n(CC(=O)C2CC2)c1=O)c1ccc(F)cc1` has a reported Giant foxtail plant response rating of 5

The compound listed as Cc1nc(C)c(C(C)n2c(=O)on(C(=O)N(c3ccc(F)cc3F)C(C)C)c2=O)s1 (stereo not shown) has a reported Giant foxtail plant response rating of 0

The compound listed as COC(C)n1c(=O)on(C(=O)N(c2ccc(F)cc2)C(C)C)c1=O (stereo not shown) has a reported Giant foxtail plant response rating of 0

* * *

# Test system: giant foxtail
# protocol_text: Test B pre/postemergence giant foxtail
# Assay type: in vivo, Setaria faberii
# run_conditions: Preemergence, Rate 250 g/ha; scale 0 to 10, 0 is no effect, 10 is complete control
measured_parameter: Giant foxtail plant response rating
Reply with just the number.

Example cases with answers are listed next.
The molecule listed as `CC(C)N(C(=O)n1oc(=O)n(CC#N)c1=O)c1ccc(Cl)cc1` has a reported Giant foxtail plant response rating of 0

The molecule listed as `CC(C)N(C(=O)n1oc(=O)n(Cc2cnc(Cl)s2)c1=O)c1ccc(F)cc1` has a reported Giant foxtail plant response rating of 8

The molecule listed as CC(C)N(C(=O)n1oc(=O)n(C(C)CCl)c1=O)c1ccccc1 (centres unmarked) has a reported Giant foxtail plant response rating of 10

The molecule listed as CC(C)N(C(=O)n1oc(=O)n(C(C)C#N)c1=O)c1ccc(Cl)cc1 (centres unmarked) has a reported Giant foxtail plant response rating of 4

More entries:
The molecule listed as `CC(C)N(C(=O)n1oc(=O)n(-c2nc(Cl)sc2Cl)c1=O)c1ccc(F)cc1` has a reported Giant foxtail plant response rating of 0

The molecule listed as `CC(C)N(C(=O)n1oc(=O)n(CCCC(F)(F)F)c1=O)c1ccc(F)cc1` has a reported Giant foxtail plant response rating of 10

The molecule listed as CC(C)N(C(=O)n1oc(=O)n(C(C)c2ccccc2)c1=O)c1ccc(F)cc1 (centres unmarked) has a reported Giant foxtail plant response rating of 10

The molecule listed as `CC(C)N(C(=O)n1oc(=O)n(C)c1=O)c1ccccc1` has a reported Giant foxtail plant response rating of 10

* * *

Listed compounds paired with reported Giant foxtail plant response rating
# Test system: giant foxtail
# protocol_text: Test B pre/postemergence giant foxtail
# Format: in vivo, Setaria faberii
# run_conditions: Preemergence, Rate 62 g/ha; scale 0 to 10 (0 no effect, 10 complete control)
Reply with just the number.

The compound listed as `CCn1c(=O)on(C(=O)N(c2ccc(F)cc2F)C(C)C)c1=O` has a reported Giant foxtail plant response rating of 10

The compound listed as `CCc1noc(C)c1-n1c(=O)on(C(=O)N(c2ccc(F)cc2)C(C)C)c1=O` has a reported Giant foxtail plant response rating of 0

The compound listed as `CC(C)N(C(=O)n1oc(=O)n(-c2cnn(C)c2Cl)c1=O)c1ccccc1` has a reported Giant foxtail plant response rating of 7

The compound listed as `CC(=O)N(C)CCn1c(=O)on(C(=O)N(c2ccc(F)cc2)C(C)C)c1=O` has a reported Giant foxtail plant response rating of 6

The compound listed as `Cc1noc(C)c1Cn1c(=O)on(C(=O)N(c2ccc(Cl)cc2)C(C)C)c1=O` has a reported Giant foxtail plant response rating of 9

Now examine the next entry.
The compound listed as `Cc1ccccc1Cn1c(=O)on(C(=O)N(c2ccc(Cl)cc2)C(C)C)c1=O` has a reported Giant foxtail plant response rating of 0

* * *

# Test system: velvetleaf
# protocol_text: Test B pre/postemergence velvetleaf
# Assay type: in vivo, Abutilon theophrasti
# run_conditions: Preemergence, Rate 500 g/ha; scale of 0 to 10 where 0 is no effect and 10 is complete control
Listed compounds paired with reported Velvetleaf plant response rating

Example cases with answers are listed next.
The compound listed as CCOCn1c(=O)on(C(=O)N(c2ccc(F)cc2F)C(C)C)c1=O [Compound 504] has a reported Velvetleaf plant response rating of 10

The compound listed as CC(C)N(C(=O)n1oc(=O)n(CCCC(F)(F)F)c1=O)c1ccc(Cl)cc1 [Compound 555] has a reported Velvetleaf plant response rating of 6

The compound listed as CCC(CC)n1c(=O)on(C(=O)N(c2ccc(F)cc2F)C(C)C)c1=O [Compound 353] has a reported Velvetleaf plant response rating of 6

The compound listed as Cc1ccccc1-n1c(=O)on(C(=O)N(c2ccncc2)C(C)C)c1=O [Compound 301] has a reported Velvetleaf plant response rating of 0

The compound listed as CC(C)N(C(=O)n1oc(=O)n(C(C)C(=O)c2ccccc2)c1=O)c1ccc(Cl)cc1 (stereo not drawn) [Compound 541] has a reported Velvetleaf plant response rating of 0

Now examine the next entry.
The compound listed as CC(C)N(C(=O)n1oc(=O)n(C2CCCCCC2)c1=O)c1ccccc1 [Compound 341] has a reported Velvetleaf plant response rating of 2

* * *

Listed compounds paired with reported Plant response rating, Giant foxtail
# Test system: giant foxtail
# protocol_text: Test B pre/postemergence giant foxtail
# Format: in vivo, Setaria faberii
# run_conditions: Preemergence, Rate 125 g/ha; scale of 0 to 10 where 0 is no effect and 10 is complete control
Reply with just the number.

With giant foxtail as the test system, `CC(C)N(C(=O)n1oc(=O)n(CCCC(F)(F)F)c1=O)c1ccc(F)cc1` showed Plant response rating, Giant foxtail of 10

With giant foxtail as the test system, `CC(C)N(C(=O)n1oc(=O)n(CC2=NOCCC2)c1=O)c1ccccc1` showed Plant response rating, Giant foxtail of 10

With giant foxtail as the test system, COC(=O)C(CCO)n1c(=O)on(C(=O)N(c2ccccc2)C(C)C)c1=O (centres unmarked) showed Plant response rating, Giant foxtail of 0

With giant foxtail as the test system, `CC(C)N(C(=O)n1oc(=O)n(CCCC#N)c1=O)c1ccccc1` showed Plant response rating, Giant foxtail of 9

Now examine the next entry.
With giant foxtail as the test system, CC(C)N(C(=O)n1oc(=O)n(C(C)CCl)c1=O)c1ccccc1 (centres unmarked) showed Plant response rating, Giant foxtail of 10
